Sourced from ChEMBL document CHEMBL1158228

Biological target: Protease (Human immunodeficiency virus 1) (UniProt Q9YQ12)
Sequence (Q9YQ12 as listed by the source): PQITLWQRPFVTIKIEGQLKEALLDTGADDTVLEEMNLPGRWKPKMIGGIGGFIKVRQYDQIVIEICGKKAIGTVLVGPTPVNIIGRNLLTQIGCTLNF
Experiment: Inhibition of HIV1 recombinant protease expressed in Escherichia coli DH5alpha at 17.9 ug/mL after 2 hrs by HPLC assay
readout_type: inhibition (%)

Examples from the recorded data:
C[C@@H]1CC[C@]2(C(=O)O)CC[C@]3(C)C(=CC[C@@H]4[C@@]5(C)CC[C@@H](O)C(C)(C)[C@@H]5CC[C@]43C)[C@@H]2[C@]1(C)O | 42
C[C@@H]1CC[C@]2(C(=O)O)CC[C@]3(C)C(=CC[C@@H]4[C@@]5(C)C[C@@H](O)[C@@H](O)C(C)(C)[C@@H]5CC[C@]43C)[C@@H]2[C@]1(C)O | 0
C[C@H]1[C@H](C)CC[C@]2(C(=O)O)CC[C@]3(C)C(=CC[C@@H]4[C@@]5(C)CC[C@H](O)C(C)(C)[C@@H]5CC[C@]43C)[C@H]12 | 85
CC1(C)CC[C@]2(C(=O)O)CC[C@]3(C)C(=CC[C@@H]4[C@@]5(C)C[C@@H](O)[C@H](O)C(C)(C)[C@@H]5CC[C@]43C)[C@@H]2C1 | 100

A = C[C@@H]1CC[C@]2(C(=O)O)CC[C@]3(C)C(=CC[C@@H]4[C@@]5(C)C[C@@H](O)C(=O)C(C)(C)[C@@H]5CC[C@]43C)[C@@H]2[C@]1(C)O
B = C[C@@H]1CC[C@]2(C(=O)O)CC[C@]3(C)C(=CC[C@@H]4[C@@]5(C)C[C@@H](O)[C@H](O)C(C)(C)[C@@H]5CC[C@]43C)[C@@H]2[C@]1(C)O
Input: Which value of inhibition is smaller, the one for A or the one for B ? Answer by quoting the chosen item's label.
Output: B
